target: full-length human PRMT3 isoform 1 (GST-tagged) (Homo sapiens, UniProt O60678); construct: GST-tagged PRMT3; made in house; host or cells: E. coli BL21(DE3) Gold; test: PRMT3 Biochemical Assay (3H-SAM Flashplate, peptide substrate); conditions: single experiment or average of multiple experiments
Sequence (O60678 with tags, fused parts or gaps): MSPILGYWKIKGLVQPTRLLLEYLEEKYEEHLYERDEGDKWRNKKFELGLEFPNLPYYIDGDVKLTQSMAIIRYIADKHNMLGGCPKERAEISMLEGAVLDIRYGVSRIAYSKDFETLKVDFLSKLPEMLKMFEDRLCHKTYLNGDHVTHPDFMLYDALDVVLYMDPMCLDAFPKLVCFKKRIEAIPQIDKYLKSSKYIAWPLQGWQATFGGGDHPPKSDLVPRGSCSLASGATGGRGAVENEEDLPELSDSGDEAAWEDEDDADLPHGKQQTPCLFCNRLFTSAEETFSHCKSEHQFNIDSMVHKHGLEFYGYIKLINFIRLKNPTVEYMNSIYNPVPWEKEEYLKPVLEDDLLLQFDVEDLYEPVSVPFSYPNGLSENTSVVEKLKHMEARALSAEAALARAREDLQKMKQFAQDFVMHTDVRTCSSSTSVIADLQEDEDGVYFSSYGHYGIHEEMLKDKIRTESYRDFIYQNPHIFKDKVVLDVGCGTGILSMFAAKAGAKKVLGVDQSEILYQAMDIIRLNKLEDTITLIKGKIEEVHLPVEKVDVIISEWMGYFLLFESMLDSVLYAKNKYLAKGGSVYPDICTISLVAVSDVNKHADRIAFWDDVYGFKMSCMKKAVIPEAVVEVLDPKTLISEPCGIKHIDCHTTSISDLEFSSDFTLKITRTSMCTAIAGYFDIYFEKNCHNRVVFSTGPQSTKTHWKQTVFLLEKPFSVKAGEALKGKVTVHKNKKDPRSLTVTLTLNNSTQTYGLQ
pIC50: −log10 of the molar value.
pIC50 values, listed per item

Previously resolved entries follow.
| sample.smiles | measurement |
| --- | --- |
| CC(C)c1n[nH]cc1CN(C)CCN | < 5.00 |
| CN(CCN)Cc1c[nH]nc1/C=C/Cc1ccccc1 | < 5.00 |
| CNCCN(C)Cc1c[nH]nc1C#Cc1cccc(OC)c1 | 5.17 |
| CN(CCN)Cc1c[nH]nc1C1CCCCC1 | 5.19 |
| CNCCN(C)Cc1c[nH]nc1C#Cc1ccc(F)cc1 | < 5.00 |

Reported pIC50, compound `CNCCN(C)Cc1c[nH]nc1/C=C/c1ccc(OC)cc1` : ____
5.23

Reported pIC50 for `CN(CCN)Cc1c[nH]nc1C1CC1` : what is it?
< 5.00

Data request, read-out pIC50, for `CN(CCN)Cc1c[nH]nc1C1=CCOCC1`
< 5.00

* * *

target: full-length human PRMT6 (Flag- and His-tagged) (Homo sapiens); experiment: PRMT6 Biochemical Assay (3H-SAM Flashplate, peptide substrate); conditions: single experiment or average of multiple experiments; read-out: Biochemical IC50 PRMT6
Sequence (Q96LA8 with tags, fused parts or gaps): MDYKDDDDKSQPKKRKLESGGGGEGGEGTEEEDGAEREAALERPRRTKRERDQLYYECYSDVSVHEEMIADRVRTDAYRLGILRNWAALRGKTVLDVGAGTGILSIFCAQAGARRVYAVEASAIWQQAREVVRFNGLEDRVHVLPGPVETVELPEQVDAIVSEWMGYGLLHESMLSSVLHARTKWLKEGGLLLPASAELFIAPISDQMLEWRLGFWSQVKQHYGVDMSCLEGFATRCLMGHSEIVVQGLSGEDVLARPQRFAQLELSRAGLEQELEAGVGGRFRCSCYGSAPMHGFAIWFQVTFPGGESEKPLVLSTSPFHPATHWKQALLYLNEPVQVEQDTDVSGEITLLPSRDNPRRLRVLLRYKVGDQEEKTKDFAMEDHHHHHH
# Lookup of reported pIC50 keyed by entry
Schema: pIC50 number; meaning minus log10 of the concentration expressed in molar units.

| compound | measured.quantity | measurement |
| --- | --- | --- |
| CNCCN(C)Cc1c[nH]nc1C1CCC(=O)CC1 | pIC50 | 7.64 |

Tell me the measured pIC50 of `CNCCN(C)Cc1c[nH]nc1[C@H]1CC[C@@H](C(=O)NCCOc2ccccc2)CC1` , please.
7.87

Which pIC50 value belongs to CNCCN(C)Cc1c[nH]nc1C1CCC(C)(C)[C@H](C(=O)NCCCOC)C1 (some centres unmarked) ?
6.76

So what does the record say about pIC50 for `CNCCN(C)Cc1cnn(C)c1C1CCC2(CCCC2)CC1` ?
7.70

Can you share its pIC50? I mean this compound: CNCCN(C)Cc1c[nH]nc1C1CCC(OC(C)C)CC1 (centres unmarked)
7.21

For the compound `CNCCN(C)Cc1c[nH]nc1[C@H]1CC[C@@]2(CCN(Cc3ccc(F)cc3)C2=O)CC1` , what pIC50 is on record?
7.88

Can you look up the measured pIC50 of `CNCCN(C)Cc1c[nH]nc1[C@H]1CC[C@@]2(CC1)CC(C)(C)CO2` for me?
7.91

Give its pIC50 value. Item: CNCCN(C)Cc1c[nH]nc1C1CCC(C)(C)[C@@H](C(=O)NCC(C)C)C1 (some centres unmarked)
7.10

Please give the measured pIC50 for this compound: CNCCN(C)Cc1c[nH]nc1C1CCC(N(CC(C)C)C(=O)CC2CCOCC2)CC1 (centres unmarked)
7.03

Entry under review: CNCCN(C)Cc1c[nH]nc1C1CCC(=O)N(CCCOC)C1 (centres unmarked) . Reported pIC50?
6.81

I am curious: what pIC50 value has been reported for `CN(CCN)Cc1c[nH]nc1/C=C/c1cc(F)cc(F)c1` ?
7.40

# query: pIC50 of entry `CNCCN(C)Cc1c[nH]nc1[C@H]1CC[C@@H](OC2CCCCC2)CC1`
7.62

Request the reported pIC50 associated with CNCCN(C)Cc1c[nH]nc1C1CCC(CC(C)C)CC1 (centres unmarked)
7.75

What value of pIC50 has been recorded for this entry: `CNCCN(C)Cc1c[nH]nc1[C@H]1CC[C@H](OC2CCCCC2)CC1`
7.65

// pIC50 lookup, key: `CNCCN(C)Cc1c[nH]nc1[C@H]1CC[C@H](COC)CC1`
7.50

What does the record list as pIC50 for `CNCCN(C)Cc1c[nH]nc1[C@H]1CC[C@]2(CCN(Cc3ccc(OCCOC)cc3)C2=O)CC1` ?
7.34

What does the record list as pIC50 for CNCCN(C)Cc1c[nH]nc1C1CCC(C)(C)C(C(=O)NCC(C)C)C1 (centres unmarked) ?
6.91

Would you mind telling me what pIC50 value was observed for `CN(CCN)Cc1n[nH]cc1C1CCCCC1` ?
7.70

Requested read-out: pIC50. Entry: `CNCCN(C)Cc1c[nH]nc1[C@H]1CC[C@H](C(C)C)CC1`
7.83

Reported pIC50 for `CNCCN(C)Cc1c[nH]nc1[C@H]1CC[C@H](C(=O)N(C)CCC(C)C)CC1` : what is it?
7.28

* * *

biological target: full-length human PRMT1 isoform 1 (GST-tagged) (Homo sapiens, UniProt Q99873); assay: PRMT1 Biochemical Assay (3H-SAM Flashplate, peptide substrate); details: single experiment or average of multiple experiments
Sequence (Q99873 with tags, fused parts or gaps): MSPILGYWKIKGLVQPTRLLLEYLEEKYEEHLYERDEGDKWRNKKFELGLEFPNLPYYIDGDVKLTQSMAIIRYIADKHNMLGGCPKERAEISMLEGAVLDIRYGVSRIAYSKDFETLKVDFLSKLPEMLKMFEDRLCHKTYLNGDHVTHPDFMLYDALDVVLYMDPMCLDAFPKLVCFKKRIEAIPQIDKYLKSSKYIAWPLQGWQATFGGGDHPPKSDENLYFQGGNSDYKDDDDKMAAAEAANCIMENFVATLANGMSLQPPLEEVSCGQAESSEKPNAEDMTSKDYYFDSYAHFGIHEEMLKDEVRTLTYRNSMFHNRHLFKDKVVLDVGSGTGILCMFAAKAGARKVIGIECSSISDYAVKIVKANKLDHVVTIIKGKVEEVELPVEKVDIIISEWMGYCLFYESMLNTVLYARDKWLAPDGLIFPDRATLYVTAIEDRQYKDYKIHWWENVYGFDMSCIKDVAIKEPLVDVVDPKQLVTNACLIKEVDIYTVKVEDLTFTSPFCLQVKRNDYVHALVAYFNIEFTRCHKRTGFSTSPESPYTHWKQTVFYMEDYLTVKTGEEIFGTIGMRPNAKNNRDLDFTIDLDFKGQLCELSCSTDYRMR
measured.quantity: pIC50
Just so you know, pIC50 here is -log10 of the concentration in molar units; reply with that number alone.

| compound | pIC50 |
| --- | --- |
| CNCCN(C)Cc1c[nH]nc1[C@@H]1CCC(C)(C)[C@@H](C(=O)NCCOC)C1 | 7.29 |

Form field: reported pIC50 of CCC(CC)OC1CCC(c2n[nH]cc2CN(C)CCNC)CC1 (stereo not shown)
8.04

What value of pIC50 has been reported for the following compound? `CNCCN(C)Cc1c[nH]nc1C1CCC(COC)(COC)CC1`
7.73

Consider the compound `CNCCN(C)Cc1c[nH]nc1[C@H]1CC[C@H](OCCOc2ccc(OC)cc2)CC1` and give its measured pIC50.
6.96

Field request: pIC50 | item: `CNCCN(C)Cc1c[nH]nc1C1CCC2(CCCC2)CC1`
8.13

Could you share which pIC50 value was measured for `CNCCN(C)Cc1c[nH]nc1[C@H]1CC[C@H](C(=O)N(C)CCOc2ccccc2)CC1` ?
8.12

Which pIC50 value belongs to `CNCCN(C)Cc1c[nH]nc1C1CCN(C)CC1` ?
8.00

Could you share which pIC50 value was measured for CNCCN(C)Cc1c[nH]nc1C1CCC(C)(C)[C@@H](C(=O)NCC(C)C)C1 (stereo partly shown) ?
7.71

// pIC50 lookup, key: `CNCCN(C)Cc1c[nH]nc1[C@H]1CC[C@H](N(CCOC)C(=O)CC(C)C)CC1`
7.51

Need pIC50, item `CNCCN(C)Cc1c[nH]nc1C1CCC(=O)CC1`
7.84

Consider the compound shown here: CNCCN(C)Cc1c[nH]nc1C1CCC2(CCCO2)CC1 (stereo not shown) What is its recorded pIC50?
8.03

Returns the measured pIC50 for the input compound. Input: `CNCCN(C)Cc1c[nH]nc1[C@H]1CC[C@H](OC2CCCCC2)CC1`
7.52

Reported pIC50, compound CNCCN(C)Cc1c[nH]nc1C1CCC(=O)N(Cc2ccc(C(F)(F)F)cc2)C1 (stereo not shown) : ____
7.30

What value of measured pIC50 is listed for `CCN(C(=O)CC1CCOCC1)[C@H]1CC[C@@H](c2n[nH]cc2CN(C)CCNC)CC1` ?
6.83

Which value of pIC50 has been reported for CCN1CC2(CCC(c3n[nH]cc3CN(C)CCNC)CC2)N(C)C1=O (stereo not shown) in the records?
7.75

Fill in the blank: the reported pIC50 of CNCCN(C)Cc1c[nH]nc1C1CCC(=O)N(CCC(C)C)C1 (stereo not shown) is ____.
7.41

Fill blank: measured pIC50 of the compound `CNCCN(C)Cc1c[nH]nc1[C@H]1CC[C@@H](C(=O)N(CCCOC)CCC(C)C)CC1` is ____.
7.70

Return reported pIC50; argument: `CNCCN(C)Cc1c[nH]nc1[C@H]1CC[C@@H](N(CCOC)C(=O)CCC(C)C)CC1`
7.89

pIC50 for `CNCCN(C)Cc1c[nH]nc1C1CC(C)(C)OC(C)(C)C1` ?
7.71

Given the compound `CNCCN(C)Cc1c[nH]nc1[C@H]1CC[C@@H](COC)CC1` , what is its reported pIC50?
7.74

Can you share its pIC50? I mean this compound: CNCCN(C)Cc1c[nH]nc1C1CC(OCC(C)C)CC(OCC(C)C)C1 (stereo not shown)
6.38

Would you kindly share the measured pIC50 for `CNCCN(C)Cc1c[nH]nc1[C@H]1CCC(C)(C)[C@@H](C(=O)NCCCOC)C1` ?
7.20

Could you tell me which pIC50 is on file for `COc1cc(/C=C/c2n[nH]cc2CN(C)CCN)cc(OC)c1` ?
8.00

Entry under review: `CNCCN(C)Cc1c[nH]nc1C1CCC(COCCOC)(COCCOC)CC1` . Reported pIC50?
7.56

Query (compound): `CN(CCN)Cc1c[nH]nc1C1CC1` ; field requested: pIC50
5.80
